Data credit: patent US5248807A

target: UniProt:Q29010
Sequence (Q29010 21-427): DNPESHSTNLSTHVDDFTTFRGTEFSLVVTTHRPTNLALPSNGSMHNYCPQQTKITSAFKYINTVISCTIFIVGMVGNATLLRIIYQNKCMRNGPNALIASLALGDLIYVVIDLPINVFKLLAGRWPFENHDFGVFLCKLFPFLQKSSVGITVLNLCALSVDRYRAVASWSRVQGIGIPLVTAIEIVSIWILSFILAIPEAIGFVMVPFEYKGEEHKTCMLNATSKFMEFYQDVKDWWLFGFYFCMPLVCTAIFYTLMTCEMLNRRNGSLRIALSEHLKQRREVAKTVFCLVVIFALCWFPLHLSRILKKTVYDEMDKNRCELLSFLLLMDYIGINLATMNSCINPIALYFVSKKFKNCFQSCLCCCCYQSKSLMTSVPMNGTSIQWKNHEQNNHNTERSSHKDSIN
parameter: pIC50
pIC50 field: float, defined as -log10 of concentration (mol/L).

Recorded pIC50 for CC1(C)CCC2(C(=O)O)CCC3(COC(=O)C=Cc4ccc(O)c(O)c4)C(=CCC4C5(C)CCC(=O)C(C)(C)C5CCC43C)C2C1 (stereo not shown) , please?
7.49
